glycan array binding signal (z-score): recorded values
# TARGET_UNDER_TEST: Gal(b1-4)GlcNAc(b1-2)Man(a1-3)[Gal(b1-4)GlcNAc(b1-2)Man(a1-6)][GlcNAc(b1-4)]Man(b1-4)GlcNAc(b1-4)[Fuc(a1-6)]GlcNAc
# PROTOCOL_SUMMARY: glycan array binding signal (z-score within array); higher = stronger binding
# MEASUREMENT_CONTEXT: glycan notation: IUPAC condensed, linker removed
Many of the other results were omitted from the sample, so the strongest signals are more common in it than they were.

BINDER	glycan array binding signal (z-score)
SJA (Sophora japonica) (protein) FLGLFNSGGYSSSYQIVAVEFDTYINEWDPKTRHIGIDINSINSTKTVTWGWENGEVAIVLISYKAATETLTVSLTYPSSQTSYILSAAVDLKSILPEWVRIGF	-0.337
VLRB.aGPA.23-GCN4-biotin (Petromyzon marinus) (protein) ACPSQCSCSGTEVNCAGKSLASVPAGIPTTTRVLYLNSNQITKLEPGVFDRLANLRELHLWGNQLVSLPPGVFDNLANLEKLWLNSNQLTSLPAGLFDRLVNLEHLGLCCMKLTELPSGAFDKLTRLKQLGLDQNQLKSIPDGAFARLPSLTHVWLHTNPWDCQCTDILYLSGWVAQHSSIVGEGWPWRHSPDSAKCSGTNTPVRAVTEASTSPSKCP	-0.081
BDCA-2 (Homo sapiens), Q8WTT0 (protein) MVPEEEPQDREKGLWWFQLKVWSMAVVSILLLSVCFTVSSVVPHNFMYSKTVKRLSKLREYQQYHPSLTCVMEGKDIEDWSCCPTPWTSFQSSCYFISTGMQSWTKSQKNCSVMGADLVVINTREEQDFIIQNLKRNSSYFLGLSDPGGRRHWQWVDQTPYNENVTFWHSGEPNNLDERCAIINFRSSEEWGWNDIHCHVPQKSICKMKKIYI	3.96
CD34 (Homo sapiens), P28906 (protein) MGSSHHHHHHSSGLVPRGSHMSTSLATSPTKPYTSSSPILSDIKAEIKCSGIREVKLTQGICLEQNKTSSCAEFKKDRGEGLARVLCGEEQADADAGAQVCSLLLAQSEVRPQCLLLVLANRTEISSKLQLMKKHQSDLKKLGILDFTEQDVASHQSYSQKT	-0.754
OGAA (protein) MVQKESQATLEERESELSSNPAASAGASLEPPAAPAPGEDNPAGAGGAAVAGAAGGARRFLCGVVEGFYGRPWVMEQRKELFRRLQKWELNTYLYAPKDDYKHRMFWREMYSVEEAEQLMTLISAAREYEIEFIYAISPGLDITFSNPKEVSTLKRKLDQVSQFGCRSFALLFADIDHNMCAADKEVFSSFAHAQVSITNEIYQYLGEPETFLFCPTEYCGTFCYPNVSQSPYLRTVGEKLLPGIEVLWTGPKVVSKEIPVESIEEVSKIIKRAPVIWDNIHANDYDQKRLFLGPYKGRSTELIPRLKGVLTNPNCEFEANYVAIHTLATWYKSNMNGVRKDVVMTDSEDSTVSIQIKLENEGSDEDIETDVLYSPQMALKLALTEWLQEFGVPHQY	-0.009
Gal 2 (Homo sapiens), P05162 (protein) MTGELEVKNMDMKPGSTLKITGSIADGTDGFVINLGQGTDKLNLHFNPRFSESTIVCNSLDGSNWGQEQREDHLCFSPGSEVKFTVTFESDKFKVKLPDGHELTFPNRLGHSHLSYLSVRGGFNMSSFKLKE	-0.215
EUL D1A first (Oryza sativa) (protein) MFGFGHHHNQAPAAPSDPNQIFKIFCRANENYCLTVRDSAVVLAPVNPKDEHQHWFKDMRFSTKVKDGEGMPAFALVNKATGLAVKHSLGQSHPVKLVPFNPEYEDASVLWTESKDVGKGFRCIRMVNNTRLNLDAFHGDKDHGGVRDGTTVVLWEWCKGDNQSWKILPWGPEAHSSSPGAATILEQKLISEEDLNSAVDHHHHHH	-1.23
